Test system: DLD-1
ASSAY_NAME: NCI tumour cell line growth inhibition, 48 h
Active and inactive are the calls of the source. No stated cut-off is given here; in the data, active = GI50 up to about 1.1 µM and inactive = higher.
METRIC: GI50

{"COMPOUND": "Cc1nc2nnnn2c2c1C(=O)Nc1ccccc1N2", "RESULT": "> 100 µM (inactive)"}

Reported GI50 for DLD-1, given COc1ccc2c(c1)[n+]([O-])c(C(=O)C/C(=N/NC(=O)c1ccccc1O)C(=O)Nc1ccc(Cl)c(C(F)(F)F)c1)c(C)[n+]2[O-] ?
37.4 µM (inactive)

Reported GI50 for DLD-1, given O=C(NCCCC/N=c1/cccccc1NCCCCNC(=O)OCc1ccccc1)OCc1ccccc1 ?
12.6 µM (inactive)
